The origin of these recorded values is the supplement of paper PMC10567573.

B1: TSN (parent)
chain: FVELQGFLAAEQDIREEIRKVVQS

variants of: B1; test: protein stability index of a GFP-peptide fusion (GPS, HEK-293T) (PSI 1-6); higher = more stable; details: c terminus: a fixed tail appended;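 also: lentivirally expressed fusions sorted by FACS into six bins by GFP to DsRed ratio, PSI derived from sequencing read proportions per bin multiplied by bin number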
Exercise: state measured protein stability index for each of the variants provided.
Answer with a number only.

// sample FVELQGFLAAEQDIREEIRKVGQS [V22G] , its protein stability index was 1.55

// sample FTELQGFLAAEQDIREEIRKVVQS [V2T] , its protein stability index was 1.68

// sample FVWLQGFLAAEQDIREEIRKVVQS [E3W] , its protein stability index was 1.75

// sample FVELQGFLAHEQDIREEIRKVVQS [A10H] , its protein stability index was 1.74

// sample FVELQGFLAAEQDIREEIRPVVQS [K20P] , its protein stability index was 2.1

// sample FVELQGFLAAEQDIREEDRKVVQS [I18D] , its protein stability index was 1.62

// sample FVELQGFLAEEQDIREEIRKVVQS [A10E] , its protein stability index was 4.05

// sample FVELQGFLAAEQDIWEEIRKVVQS [R15W] , its protein stability index was 1.39

// sample FVELQGFLAAEQDIREEHRKVVQS [I18H] , its protein stability index was 1.24

// sample FVELQGFLAAEQDIREEIRKVKQS [V22K] , its protein stability index was 1.62

// sample FVELQGFRAAEQDIREEIRKVVQS [L8R] , its protein stability index was 3.58

// sample FVELQGFLAAEQDIRTEIRKVVQS [E16T] , its protein stability index was 1.14

// sample FVELQGFEAAEQDIREEIRKVVQS [L8E] , its protein stability index was 2.44
